Tested on: 777334-354-R2-J4-PDC tumor spheroids with HUVEC/MSC, viability
Assay: Anticancer human tumor 777334-354-R2-J4-PDC patient-derived pancreatic adenocarcinoma cell line growth inhibition [GQUAD]
Details: second compound 1 µM; first compound 0.1 µM; stronger effect = lower value
Text: DNA G-quadruplex Stabilizer Agents in Combinations in Complex Spheroids A high-throughput screen of multi-cell type tumor spheroids was designed to identify active combinations of DNA G-quadruplex stabilizer agents and targeted small molecules. […] Compounds. […] If the clinical Cmax for an agent had not been determined, the highest concentration tested was 10 microM. […]
READOUT_TYPE: viability, T/C (%)
Report the figure in % without appending any unit label.

stdin: Entry O=C(NO)c1cnc(N2CCN(S(=O)(=O)c3ccc4ccccc4c3)CC2)nc1 + Cc1cnc(CNC(=O)c2c(=O)c3ccc(N4CCCN(C)CC4)nc3n3c2sc2ccccc23)cn1 has what viability, T/C?
stdout: 60

stdin: Entry CC(C)(O)C1CCC(Nc2ccc3ncc(-c4cccc(C(F)(F)F)c4)n3n2)CC1 (stereo not drawn) + CN(C)c1ccc(Nc2c3ccc(NC(=O)CCN4CCCC4)cc3nc3cc(NC(=O)CCN4CCCC4)ccc23)cc1 has what viability, T/C?
stdout: 89.9

stdin: Entry COc1cc(C2c3cc4c(cc3C(OC3OC5COC(C)OC5C(O)C3O)C3COC(=O)C23)OCO4)cc(OC)c1O (stereo not drawn) + CN(C)c1ccc(Nc2c3ccc(NC(=O)CCN4CCCC4)cc3nc3cc(NC(=O)CCN4CCCC4)ccc23)cc1 has what viability, T/C?
stdout: 82

====

Below, each of the compounds is paired with its reported pIC50 value.
tested on: 777334-354-R2-J4-PDC tumor spheroids with HUVEC/MSC, viability; test: Anticancer human tumor 777334-354-R2-J4-PDC cell line growth inhibition [GQUAD]; conditions: curve of first compound; second compound 1 µM;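 further: spheroids exposed to compounds for 7 days before readout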
Just so you know, pIC50 here is -log10 of the concentration in molar units; reply with that number alone.

• CC[C@@]1(O)C(=O)OCc2c1cc1n(c2=O)Cc2cc3c(CN(C)C)c(O)ccc3nc2-1 + CN(C)c1ccc(Nc2c3ccc(NC(=O)CCN4CCCC4)cc3nc3cc(NC(=O)CCN4CCCC4)ccc23)cc1 = 6.79
• C=CCn1c(=O)c2cnc(Nc3ccc(N4CCN(C)CC4)cc3)nc2n1-c1cccc(C(C)(C)O)n1 + Cc1cnc(CNC(=O)c2c(=O)c3ccc(N4CCCN(C)CC4)nc3n3c2sc2ccccc23)cn1 = 6.44
• COc1cc(C2c3cc4c(cc3C(OC3OC5COC(C)OC5C(O)C3O)C3COC(=O)C23)OCO4)cc(OC)c1O (stereo not given) + CN(C)c1ccc(Nc2c3ccc(NC(=O)CCN4CCCC4)cc3nc3cc(NC(=O)CCN4CCCC4)ccc23)cc1 = 5.53

stdin: Entry CC[C@@]1(O)C(=O)OCc2c1cc1n(c2=O)Cc2cc3c(CN(C)C)c(O)ccc3nc2-1 + Cc1[nH]c2ccc(F)cc2c1-c1nc2c3cccnc3c3ncccc3c2[nH]1 has what pIC50?
stdout: 6.91

stdin: Entry CC(C)(O)C1CCC(Nc2ccc3ncc(-c4cccc(C(F)(F)F)c4)n3n2)CC1 (stereo not given) + CN(C)c1ccc(Nc2c3ccc(NC(=O)CCN4CCCC4)cc3nc3cc(NC(=O)CCN4CCCC4)ccc23)cc1 has what pIC50?
stdout: 5.87

stdin: Entry O=C(NO)c1cnc(N2CCN(S(=O)(=O)c3ccc4ccccc4c3)CC2)nc1 + Cc1[nH]c2ccc(F)cc2c1-c1nc2c3cccnc3c3ncccc3c2[nH]1 has what pIC50?
stdout: 5.80

====

Below, each of the compounds is paired with its reported viability, T/C value.
system: 777334-354-R2-J4-PDC tumor spheroids with HUVEC/MSC, viability; assay: Anticancer human tumor 777334-354-R2-J4-PDC cell line growth inhibition [GQUAD]; conditions: second compound 1 µM; first compound 10 µM; stronger effect = lower value;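 further: spheroids exposed to compounds for 7 days before readout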
Report the figure in % without appending any unit label.

stdin: // fetch 777334-354-R2-J4-PDC tumor spheroids with HUVEC/MSC, viability viability, T/C for C=CC(=O)N1CCN(c2nc(=O)n(-c3c(C)ccnc3C(C)C)c3nc(-c4c(O)cccc4F)c(F)cc23)C(C)C1 (stereo not drawn) + Cc1cnc(CNC(=O)c2c(=O)c3ccc(N4CCCN(C)CC4)nc3n3c2sc2ccccc23)cn1
stdout: 71.5

stdin: // fetch 777334-354-R2-J4-PDC tumor spheroids with HUVEC/MSC, viability viability, T/C for CC(C)(O)C1CCC(Nc2ccc3ncc(-c4cccc(C(F)(F)F)c4)n3n2)CC1 (stereo not drawn) + Cc1cnc(CNC(=O)c2c(=O)c3ccc(N4CCCN(C)CC4)nc3n3c2sc2ccccc23)cn1
stdout: 30.7

stdin: // fetch 777334-354-R2-J4-PDC tumor spheroids with HUVEC/MSC, viability viability, T/C for C#Cc1c(F)ccc2cc(O)cc(-c3ncc4c(N5CC6CCC(C5)N6)nc(OCC56CCCN5CC(F)C6)nc4c3F)c12 (stereo not drawn) + CN(C)c1ccc(Nc2c3ccc(NC(=O)CCN4CCCC4)cc3nc3cc(NC(=O)CCN4CCCC4)ccc23)cc1
stdout: 23.7

====

Below, each of the compounds is paired with its reported viability, T/C value.
tested on: 777334-354-R2-J4-PDC tumor spheroids with HUVEC/MSC, viability; assay: Anticancer human tumor 777334-354-R2-J4-PDC cell line growth inhibition [GQUAD]; settings: second compound 1 µM; first compound 0.1 µM; stronger effect = lower value;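 further: spheroids exposed to compounds for 7 days before readout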
Report the figure in % without appending any unit label.

Record excerpt, results attached:
• CC(C)(O)C1CCC(Nc2ccc3ncc(-c4cccc(C(F)(F)F)c4)n3n2)CC1 (configuration not stated) + Cc1cnc(CNC(=O)c2c(=O)c3ccc(N4CCCN(C)CC4)nc3n3c2sc2ccccc23)cn1 = 67.4
• O=c1[nH]cc(F)c(=O)[nH]1 + Cc1[nH]c2ccc(F)cc2c1-c1nc2c3cccnc3c3ncccc3c2[nH]1 = 89.5
• CC(C)n1c(=O)n(C)c2cnc3cc(F)c(-c4ccc(OCCCN5CCCCC5)nc4)cc3c21 + Cc1cnc(CNC(=O)c2c(=O)c3ccc(N4CCCN(C)CC4)nc3n3c2sc2ccccc23)cn1 = 71.6
• CC1COCCN1c1cc(-c2ccnn2C)c2ccnc(-c3ccn[nH]3)c2n1 (configuration not stated) + Cc1[nH]c2ccc(F)cc2c1-c1nc2c3cccnc3c3ncccc3c2[nH]1 = 65.2
• COc1ncnc(C2CC2)c1-c1ncc2cnn(Cc3ccc(-c4nc(C(F)(F)F)cn4C(C)C)cc3)c2n1 + Cc1cnc(CNC(=O)c2c(=O)c3ccc(N4CCCN(C)CC4)nc3n3c2sc2ccccc23)cn1 = 75.7
• CC(C)n1c(=O)n(C)c2cnc3cc(F)c(-c4ccc(OCCCN5CCCCC5)nc4)cc3c21 + Cc1[nH]c2ccc(F)cc2c1-c1nc2c3cccnc3c3ncccc3c2[nH]1 = 84.7

// next item, viability, T/C requested
stdin: Entry C=CC(=O)N1CCN(c2nc(=O)n(-c3c(C)ccnc3C(C)C)c3nc(-c4c(O)cccc4F)c(F)cc23)C(C)C1 (configuration not stated) + Cc1cnc(CNC(=O)c2c(=O)c3ccc(N4CCCN(C)CC4)nc3n3c2sc2ccccc23)cn1 has what viability, T/C?
stdout: 74.1

====

system: 777334-354-R2-J4-PDC tumor spheroids with HUVEC/MSC, viability; assay: Anticancer human tumor 777334-354-R2-J4-PDC cell line growth inhibition [GQUAD]; details: second compound 0.316 µM; first compound 0.00999 µM; stronger effect = lower value;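 further: spheroids exposed to compounds for 7 days before readout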
READOUT_TYPE: viability, T/C (%)
Report the figure in % without appending any unit label.

Record excerpt, results attached:
- Cc1[nH]c2ccccc2c1CCNCc1ccc(/C=C/C(=O)NO)cc1 + CN(C)c1ccc(Nc2c3ccc(NC(=O)CCN4CCCC4)cc3nc3cc(NC(=O)CCN4CCCC4)ccc23)cc1: 99.5
- Cn1ncnc1[C@H]1c2n[nH]c(=O)c3cc(F)cc(c23)N[C@@H]1c1ccc(F)cc1 + Cc1cnc(CNC(=O)c2c(=O)c3ccc(N4CCCN(C)CC4)nc3n3c2sc2ccccc23)cn1: 71.9
- CC[C@@]1(O)C(=O)OCc2c1cc1n(c2=O)Cc2cc3c(CN(C)C)c(O)ccc3nc2-1 + Cc1[nH]c2ccc(F)cc2c1-c1nc2c3cccnc3c3ncccc3c2[nH]1: 96.4

stdin: Entry CCc1c2c(nc3ccc(O)cc13)-c1cc3c(c(=O)n1C2)COC(=O)[C@]3(O)CC + Cc1cnc(CNC(=O)c2c(=O)c3ccc(N4CCCN(C)CC4)nc3n3c2sc2ccccc23)cn1 has what viability, T/C?
stdout: 37.1

stdin: Entry CCc1c2c(nc3ccc(O)cc13)-c1cc3c(c(=O)n1C2)COC(=O)[C@]3(O)CC + Cc1[nH]c2ccc(F)cc2c1-c1nc2c3cccnc3c3ncccc3c2[nH]1 has what viability, T/C?
stdout: 38.2

stdin: Entry Cc1[nH]c2ccccc2c1CCNCc1ccc(/C=C/C(=O)NO)cc1 + Cc1[nH]c2ccc(F)cc2c1-c1nc2c3cccnc3c3ncccc3c2[nH]1 has what viability, T/C?
stdout: 109
